Where do the numbers come from? From the supplement of paper PMC9170038.

test system: MS2 coat protein; test: apparent KD of MS2 coat protein; designed switch direction (-1 OFF switch, 1 ON switch): -1; higher = weaker reporter binding; conditions: input ligand: FMN 200 uM
READOUT_NAME: apparent KD of MS2 coat protein (nM)
# number only, unit nM dropped from output

AGCUAAAUAGGAUAUGCCCGGGAUAACAUGAGGAUCACCCAUGUGACCGAUUCAUGUCCUGCAGAAGGAUUUGGGA [Mod of ViennaUCT 5 - Jieux - Exclusion 5] (Eterna round: R97, puzzle: Exclusion 5)
17
AAAUACAAAGGAUAUACAUGAGGAUCACCCAUGUAGGUCAAUGCGCGGGCGAUGCCACGUAGAAGGUUGAAUAC [EX3 C.12] (Eterna round: R97, puzzle: Exclusion 3)
27.5

Challenge: apparent KD of MS2 coat protein lookup needed for UUUACCAGAGGAUAUGCGAAUAAAUAAAACUUUUUUUUUUAACAUGAGGAUCACCCAUGUAGAAGGCUGCAUUU [Ex2 #29] (Eterna round: R97, puzzle: Exclusion 2) , thanks.
Response given: 25.5

Challenge: Here is the next sequence: AAAAUAAAAGCAGGAUAUCGACCUCCCAAGUGGCGAGAAGGGCUAGACGGGCGGUCUAACAUGAGGAUCACCCAUGUCAACAAA [Soorante] (Eterna round: R96, puzzle: Exclusion NG 1)
Response given: 93.4

Challenge: // same read-out, input: AUAAUGUGAGGAUAUCAGUCGACUAGCUUCGGCUAGUCGACUGAGAAGGUACAUGAGGAUCACCCAUGUAGAUC [E4/20-A1] (Eterna round: R97, puzzle: Exclusion 4)
Response given: 59.9

Challenge: Please give the result for UAUUCGCGAGGAUAUGCAGUCGAGUCCAUUACGUGUCUGGGACUUGAGGAUCACCCAAGUAGAAGGCGUCUCAU [salish99_ex2_r4_642] (Eterna round: R97, puzzle: Exclusion 2) too.
Response given: 124

Challenge: Here is the next sequence: AUAAAUCAUGUAGGAUAUGCGUGGCAAAGCUAUGCAGAAGGACAUGAGGAUCACCCAUGUGCUUCCGUCUGCGUACAGACGGUA [Mat - Exclusion NG 1 - Mod of JL - D33] (Eterna round: R96, puzzle: Exclusion NG 1)
Response given: 114

Challenge: Also, AAUUAGUCAGGAUAUACAUGAGGAUCACCCAUGUAAACUUUUAGUUUAAUUUGAAUGUGUAGAAGGGACAUUUA [Ex3 #47] (Eterna round: R97, puzzle: Exclusion 3) please.
Response given: 18.9

Challenge: Please answer likewise for AGUACUAUCACGAAAGUGAUAGUACAAUGAGCUUUUGAAACAUGAGGAUCACCCAUGUCCUCGUAAGCUCGUCUUAA [Mat - Sensor v2 - var 2 - Mod - D179] (Eterna round: R96, puzzle: Sensor v2, turn-off variant 2)
Response given: 25.7

Challenge: Param item: GCUCAACAUGAGGAUCACCCAUGUCAGGAUAUGCGAAUUUCAUCAAAAGAUGAAAUUUGCAGAAGGGACUAAGC [Omei Ex1 A32] (Eterna round: R97, puzzle: Exclusion 1)
Response given: 114
